test: chemical genetic growth profiling, strain panel (AID 1159580);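 also: tested at 20 µM; growth read once vehicle control cultures reached saturation at 30 °C; 1 = growth at the plate median or of vehicle wells; lower values mean less growth of the strain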; conditions: S. cerevisiae deletion strains, growth OD, locus YJL095W, strain BCK1, hits give low values
In all, about 5,500 compounds went through this assay and about 2,000 (36%) were called active. Roughly 18% stayed inconclusive and do not appear here. The list shows a part of the results.
Give normalized growth for every item shown.
Answers are plain numbers.

Examples from the recorded data:
Cc1onc(-c2c(F)cccc2Cl)c1C(=O)NNc1cc(Cl)cc(Cl)c1
0.942
C=C1C(C)C2C(Cc3ccccc3)NC(=O)C23OC(=O)/C=C/C(=O)CCCC(C)C/C=C/C3C1O (stereo unspecified)
1.01
CCC(C)c1cnc(CC(C)C)c(=O)n1O (stereo unspecified)
0.981
CCOC(=O)c1ccc(O)cc1
1.01
NC(=O)c1cccc(N)c1
1

Next item in the queue.
Need normalized growth, item `CCCCOC(=O)c1ccc(O)cc1`
0.895

* * *

assay: chemical genetic growth profiling, strain panel (AID 1159580);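 also: tested at 20 µM; growth read once vehicle control cultures reached saturation at 30 °C; 1 = growth at the plate median or of vehicle wells; lower values mean less growth of the strain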; conditions: S. cerevisiae deletion strains, growth OD, locus YOR106W, strain vam3
Out of some 5,500 compounds screened, about 2,000 (36%) were called active. Inconclusive results (about 18%) are left out. Rule as the data show it: active = normalized growth mostly below about 0.91 (no sharp cut-off); inconclusive = no clear call, values can overlap the other calls; inactive = mostly above about 0.92. The list shows a part of the results.
Respond only with the outcome that fits, drawn from True for active, False for inactive

Use the examples below as a reference point.
COC(=O)[C@@H]1OC(=O)[C@H]2O[C@@]23[C@@]1(C)CCC1[C@@]2(C)CCC(=O)C(C)(C)C2C[C@@H](OC(C)=O)[C@]13C (some centres undefined)
False
C[C@H]1CC[C@@H](C(C)(C)O)CC2=C1CC[C@@H]2C
False
NS(=O)(=O)c1cc2c(cc1Cl)NC(C(Cl)Cl)NS2(=O)=O (centres undefined)
False
CC(C)(C)CC(C)(C)c1ccc(O)c(Cc2ccc(Cl)cc2Cl)c1
False
C=C1C(=O)OC2CC1C(OC(C)=O)C/C(C)=C/CC/C(C)=C/CC[C@]2(C)O (some centres undefined)
False

# evaluate next
Hi, do you know how `CC1(C)NC(=O)N(c2ccc([N+](=O)[O-])c(C(F)(F)F)c2)C1=O` came out in this test?
False

* * *

experiment: chemical genetic growth profiling, strain panel (AID 1159580);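 also: tested at 20 µM; growth read once vehicle control cultures reached saturation at 30 °C; 1 = growth at the plate median or of vehicle wells; lower values mean less growth of the strain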; settings: S. cerevisiae deletion strains, growth OD, locus YNR052C, strain pop2
Hit rate of the full screen: of about 5,500 compounds, about 2,000 (36%) were called active. About 18% were inconclusive and are not listed. Rule as the data show it: active = normalized growth mostly below about 0.91 (no sharp cut-off); inconclusive = no clear call, values can overlap the other calls; inactive = mostly above about 0.92. Some of the results follow.
Respond only with the outcome that fits, drawn from YES for active, NO for inactive

Use the examples below as a reference point.
Cc1c(Cl)cccc1Nc1ccccc1C(=O)O
YES
CC(C)NC[C@H](O)COc1cccc2ccccc12
NO
CCCC(=O)O[C@]1(C(=O)CO)CCC2[C@@H]3CCC4=CC(=O)CC[C@]4(C)C3[C@@H](O)C[C@@]21C (stereo partly drawn)
NO

Hi, do you know how `Cc1cccc(C(=O)O)c1O` came out in this test?
NO

Hi, do you know how `O=C(Cn1ccnc1[N+](=O)[O-])NCCO` came out in this test?
NO

Hi, do you know how NC(CO)C(=O)NNCc1ccc(O)c(O)c1O (stereo not drawn) came out in this test?
NO

Hi, do you know how `NC(N)=NS(=O)(=O)c1ccc(N)cc1` came out in this test?
NO

Hi, do you know how CC(C(=O)O)c1ccc(C(=O)c2cccs2)cc1 (stereo not drawn) came out in this test?
NO
